Test system: L1210 leukemia ip in BDF1 mice, survival T/C
assay_comment: NCI In Vivo Anticancer Drug Screen. Data for tumor model L1210 Leukemia (intraperitoneal) in B6D2F1 (BDF1) mice
measurement_conditions: endpoint: mean survival time; dose: 400.0 mg/kg/injection; schedule: Q04DX003 (ip); vehicle: saline with Tween-80; higher = longer survival
Inconclusive results and toxic doses are left out.
Overview of recorded T/C for various compounds

// worked examples, T/C included
Cc1ccccc1C1SCCCS1 :: 107 % of control
Cc1ccc(S(=O)(=O)N(C)c2cc(Cl)c(C(N)=O)c(Cl)c2)cc1 :: 92 % of control
CC(C)CCNC(=O)NS(=O)(=O)c1ccc(Cl)cc1 :: 100 % of control
Cc1[nH]c(=O)[nH]c(=O)c1CN1CCOCC1 :: 100 % of control
OC1(C2(O)CCCC2)CCCC1 :: 95 % of control
O=C(/C=N/O)Nc1cc(Cl)ccc1Cl :: 108 % of control
Cc1cccc(C)c1-n1c(=S)[nH]n(-c2ccccc2)c1=S :: 105 % of control
CCOC(=O)C(CSCSC)NC(=O)/C=C/c1cccnc1 (configuration not stated) :: 90 % of control

Pending compound:
Ask: Return T/C (reported value) for this compound: `CC(=O)Nc1ccc(NC(C)=O)c2c1C(=O)c1ccccc1C2=O`
Result: 93 % of control

###

Overview of recorded T/C for various compounds
Test system: L1210 leukemia ip in BDF1 mice, survival T/C
assay_comment: NCI In Vivo Anticancer Drug Screen. Data for tumor model L1210 Leukemia (intraperitoneal) in B6D2F1 (BDF1) mice
measurement_conditions: endpoint: mean survival time; dose: 222.0 mg/kg/injection; schedule: Q01DX Z (ip); vehicle: saline; higher = longer survival
Toxic doses and inconclusive results are not listed.

OCC(O)C1OCOC2COCOC21 (centres undefined) :: 98 % of control

Ask: Return T/C (reported value) for this compound: `CC(C)OC(=O)Cc1cccc2ccccc12`
Result: 98 % of control

Ask: Return T/C (reported value) for this compound: `CCCCCCCCCN1C(=O)c2ccccc2S1(=O)=O`
Result: 100 % of control

Ask: Return T/C (reported value) for this compound: `CCCCCCCCCCCCCC(=O)OCC(C)C`
Result: 94 % of control

###

Test system: L1210 leukemia ip in BDF1 mice, survival T/C
assay_comment: NCI In Vivo Anticancer Drug Screen. Data for tumor model L1210 Leukemia (intraperitoneal) in B6D2F1 (BDF1) mice
measurement_conditions: endpoint: mean survival time; dose: 300.0 mg/kg/injection; schedule: Q01DX001 (ip); vehicle: other; higher = longer survival
Inconclusive results and toxic doses are left out.
measurement_name: T/C

// worked examples, T/C included
Cc1cc(C(=O)O)c(C(=O)O)c(=O)[nH]1 :: 102 % of control
O=C(O)C1(Br)CC2CC1C1C2C2(Cl)C(Cl)=C(Cl)C1(Cl)C2(Cl)Cl (centres undefined) :: 96 % of control
CN(C)C(=S)Sc1ccc([N+](=O)[O-])cc1 :: 91 % of control

Ask: Return T/C (reported value) for this compound: `CSc1nsc(N)n1`
Result: 103 % of control

###

System: L1210 leukemia ip in BDF1 mice, survival T/C
assay_comment: NCI In Vivo Anticancer Drug Screen. Data for tumor model L1210 Leukemia (intraperitoneal) in B6D2F1 (BDF1) mice
measurement_conditions: endpoint: mean survival time; dose: 400.0 mg/kg/injection; schedule: Q04DX002 (ip); vehicle: Klucel (hydroxypropylcellulose) (HPC); higher = longer survival
Method: The antitumor activity of compounds was measured in mice bearing transplantable tumors. Survival or tumor size were measured and the results are expressed as the measurement made in the treated group (T) divided by the measurement made in the vehicle treated control group (C). The tumor model used in this assay is L1210 Leukemia (intraperitoneal) in B6D2F1 (BDF1) mice
Inconclusive results and toxic doses are left out.
measurement_name: T/C

// worked examples, T/C included
Cc1cc(Cl)c(Cl)cc1NC(=O)c1ccc(Cl)cc1Cl :: 108 % of control
Nc1ccc(NC(=O)Nc2ccccc2)cc1 :: 101 % of control

Ask: Return T/C (reported value) for this molecule: `O=[N+]([O-])c1ccc(/C=N/c2oc(-c3ccc([N+](=O)[O-])cc3)nc2Sc2ccccc2)cc1`
Result: 96 % of control

Ask: Return T/C (reported value) for this molecule: `CCOC(=O)C(=Cc1ccccc1)C(=O)OCC`
Result: 102 % of control

Ask: Return T/C (reported value) for this molecule: C=C1c2ccccc2N(C)C1(COc1ccc(Br)cc1)OC(=O)c1cccc(Cl)c1 (stereo not drawn)
Result: 98 % of control

###

Test system: L1210 leukemia ip in BDF1 mice, survival T/C
assay_comment: NCI In Vivo Anticancer Drug Screen. Data for tumor model L1210 Leukemia (intraperitoneal) in B6D2F1 (BDF1) mice
measurement_conditions: endpoint: mean survival time; dose: 100.0 mg/kg/injection; schedule: Q01DX001 (ip); vehicle: saline; higher = longer survival
Toxic doses and inconclusive results are not listed.
measurement_name: T/C

CSc1nc(C)c(NC(C)=O)c(=O)[nH]1 :: 101 % of control
Cc1ccc(N)cc1Br :: 102 % of control
CCCC[Si](Cl)(CCCC)CCCC :: 95 % of control
Cc1c2c(cc3c1OCN(C1CCCCC1)C3)CN(C1CCCCC1)CO2 :: 98 % of control
C[S+](C)C :: 96 % of control
CC(=O)NCCNC(C)=O :: 108 % of control

Pending compound:
Ask: Return T/C (reported value) for this compound: `CC(=O)Nc1ccc(OC(C)(C)C)cc1`
Result: 106 % of control

###

Overview of recorded T/C for various molecules
System: L1210 leukemia ip in BDF1 mice, survival T/C
assay_comment: NCI In Vivo Anticancer Drug Screen. Data for tumor model L1210 Leukemia (intraperitoneal) in B6D2F1 (BDF1) mice
measurement_conditions: endpoint: mean survival time; dose: 200.0 mg/kg/injection; schedule: Q01DX009 (ip); vehicle: Klucel (hydroxypropylcellulose) (HPC); higher = longer survival
Protocol: The antitumor activity of compounds was measured in mice bearing transplantable tumors. Survival or tumor size were measured and the results are expressed as the measurement made in the treated group (T) divided by the measurement made in the vehicle treated control group (C). The tumor model used in this assay is L1210 Leukemia (intraperitoneal) in B6D2F1 (BDF1) mice
Toxic doses and inconclusive results are not listed.

// worked examples, T/C included
Cc1nc(N)[nH]c(=O)c1CCCN=Cc1ccccc1 :: 92 % of control
O=C(Nc1ccccn1)NC1CCCCC1 :: 105 % of control
Nc1ccccc1C(=O)N/N=C/c1ccc(Cl)cc1Cl :: 98 % of control

Ask: Return T/C (reported value) for this molecule: CC(=O)OCC(OC(C)=O)C1(O)CCC2C3CCC4=CC(=O)CCC4(C)C3CCC21C (stereo not given)
Result: 93 % of control

Ask: Return T/C (reported value) for this molecule: CC(=O)NC1CCC2CCCCC2C1 (stereo not given)
Result: 95 % of control

Ask: Return T/C (reported value) for this molecule: `O=C(/C(=N/Nc1ccccc1)c1ccccc1)c1ccccc1`
Result: 104 % of control

###

System: L1210 leukemia ip in BDF1 mice, survival T/C
assay_comment: NCI In Vivo Anticancer Drug Screen. Data for tumor model L1210 Leukemia (intraperitoneal) in B6D2F1 (BDF1) mice
measurement_conditions: endpoint: mean survival time; dose: 100.0 mg/kg/injection; schedule: Q01DX009 (ip); vehicle: saline sonified; higher = longer survival
Method: The antitumor activity of compounds was measured in mice bearing transplantable tumors. Survival or tumor size were measured and the results are expressed as the measurement made in the treated group (T) divided by the measurement made in the vehicle treated control group (C). The tumor model used in this assay is L1210 Leukemia (intraperitoneal) in B6D2F1 (BDF1) mice
Toxic doses and inconclusive results are not listed.
Overview of recorded T/C for various compounds

// worked examples, T/C included
COc1ccccc1NC(=S)Nc1ccccc1OC :: 97 % of control
CCOC(=O)CCC(C)(C#N)C(C#N)C(=O)OCC (stereo not given) :: 97 % of control
N#CC(/C=C/c1ccccc1)NCC(O)c1ccccc1 (stereo not given) :: 95 % of control

Ask: Look up and report measured T/C (L1210 leukemia ip in BDF1 mice, survival T/C) for the following compound: `CN(C)NCCC#N`
Result: 98 % of control

Ask: Look up and report measured T/C (L1210 leukemia ip in BDF1 mice, survival T/C) for the following compound: `ClCc1cccc(CCl)c1`
Result: 102 % of control

###

Test system: L1210 leukemia ip in BDF1 mice, survival T/C
assay_comment: NCI In Vivo Anticancer Drug Screen. Data for tumor model L1210 Leukemia (intraperitoneal) in B6D2F1 (BDF1) mice
measurement_conditions: endpoint: mean survival time; dose: 100.0 mg/kg/injection; schedule: Q01DX009 (ip); vehicle: Klucel (hydroxypropylcellulose) (HPC); higher = longer survival
Toxic doses and inconclusive results are not listed.
Overview of recorded T/C for various compounds

// worked examples, T/C included
C#CCCCCCCCCCC(=O)OC :: 102 % of control
N#Cc1ccc(/C=C/C(=O)c2ccccc2)cc1 :: 96 % of control

Ask: Return T/C (reported value) for this compound: `O=C(O)c1ncn[nH]1`
Result: 95 % of control

Ask: Return T/C (reported value) for this compound: `COC(=O)c1cc(C)c(Br)c(OC)c1`
Result: 98 % of control

Ask: Return T/C (reported value) for this compound: `N#Cc1cnc(N)cc1N`
Result: 104 % of control

Ask: Return T/C (reported value) for this compound: `CC(=O)Nc1ccc(NC(=O)Nc2cc([N+](=O)[O-])ccc2C)cc1`
Result: 95 % of control

Ask: Return T/C (reported value) for this compound: `Cc1cc(=O)[nH]c(N/N=C/c2ccco2)n1`
Result: 96 % of control

Ask: Return T/C (reported value) for this compound: `COc1cc2ccc(Cc3nccc4cc(OC)c(OC)cc34)cc2cc1OC`
Result: 91 % of control

Ask: Return T/C (reported value) for this compound: `CC(C)=Cc1cc(C)ccc1OC(=O)c1ccc([N+](=O)[O-])cc1`
Result: 97 % of control

Ask: Return T/C (reported value) for this compound: O=[N+]([O-])c1ccc(S(=O)C2CCCCC2Cl)c([N+](=O)[O-])c1 (stereo not drawn)
Result: 111 % of control

Ask: Return T/C (reported value) for this compound: `Nc1ccc(C(=O)c2ccc(N)cc2)cc1`
Result: 98 % of control

Ask: Return T/C (reported value) for this compound: `S=C(NCc1cccc2ccccc12)Nc1ccccc1`
Result: 95 % of control

Ask: Return T/C (reported value) for this compound: `Cc1cccc(NC(=O)COc2ccc(Cl)cc2)c1C`
Result: 97 % of control
